substrate: CC(C)=CCOP(=O)(O)O; assay: purified protein; conditions: ATP 1 mM (2 mM in methods), 25 mM Tris pH 7.8, 5 mM MgCl2, 37 °C
Each record here notes measured kcat.
metric: kcat (s⁻¹)

TCP (Thermococcus paralvinellae) (protein, N-His6 fusion, pET28a NdeI/EcoRI, codon-optimised synthetic gene, E. coli Rosetta2, Ni-NTA) MIIIKLGGSVISDKEKEYSFHRHIVEQIAEEIAQFYPDESFILVHGGGSFGHPNAREYKITEGLVGDVDRKRIGFSKTHQAMLKLNDLIIQTFLEKGLPAYSVSSSSIFLLENKEVVYGELEILRKLLELKFIPVLFGDTAIALDKGIDILSGDQIVSYLAKMLKPSKVIFLMDVDGIYDRNPKERDAKLIEELNVEEIRHLLESSESAGIDVTGGIGNKLREALKIAKHSEVYFINGKVKENLGKAIRGEKVGTRLRKLEHPKIS : 24
MSB (Methanosarcina barkeri 3) (protein, N-His6 fusion, pET28a NdeI/EcoRI, codon-optimised synthetic gene, E. coli Rosetta2, Ni-NTA) MNVSTEPVILKLGGSVITDKAADQGVVREDSLRRIAKEVSEYRGKMIIVHGAGSFGHTYAKKYQLGKVFDPEGAIVTHESVKKLASRVVDTLNEYGVRAIAVHPMCCTICRNGRIESMYLDNIKLMLENGLVPVLHGDVVMDLELRACVLSGDQIVPYLAKELKITRLGLGSAEDGVLDNDGKTVPEITPKTFEDFKHYIRGSGSTDVTGGMLGKVQELLELSKTSCITSYIFNAGKDDNIYRFLNGEPMGTTISPDKRV : 10.1
MHM (Methanohalophilus mahii DSM 5219) (protein, N-His6 fusion, pET28a NdeI/EcoRI, codon-optimised synthetic gene, E. coli Rosetta2, Ni-NTA) MNEKNSDITILKIGGSVITDKSSNEGIVREKAIIRIAREISFFEGPLIIVHGAGSFGHPQAKRYSLAYKFSAEGSGVTHRSVASLNELFVNALAQRNVNAVGIHPMGCLVAKEGRISKSFLLAIQMMLEKGITPVLHGDVVMDTVKGSSVISGDQIVPYLASKLNAYRIGVGSAEDGVLDEHGHPIPLITPDNFEIASMHIGGSENTDVTGGMLGKVKEMLDMSRQTKVPSYIFNANAGGNVMSFLRGEMIGTAIKDKA : 4.1
CNG (Candidatus Nitrososphaera gargensis Ga9.2) (protein, N-His6 fusion, pET28a NdeI/EcoRI, codon-optimised synthetic gene, E. coli Rosetta2, Ni-NTA) MQKLALIKLGGSVVTFKDKPLAANTGAIDGISRVLAQLSTPAIIVHGGGSFGHYWSVKYDMHTKPAGYDPHGVSVVHESMIALNQIIINSMIRAGLNPYGMPPSVFAAGHKPVAAKIKQIYTMAKSEVMPVTFGDVVHMEGNKYSILSGDALMTMLAKVLRPSRVVFATNVDGIYKDMASRELMREIRVTTGRKKRSIEFSKASGADVTGGMQRKVAEAFKIASRGMDVLMVNGLMPERIAEAVVEGTRLQVGTVVKGSRR : 0.87
